# protocol summary: self-splicing fitness, log relative to wild type (ln ratio); higher = more splicing; Tetrahymena group I intron in knt gene, E. coli kanamycin selection, DiMSum; sequences stand for … in CUCUCU…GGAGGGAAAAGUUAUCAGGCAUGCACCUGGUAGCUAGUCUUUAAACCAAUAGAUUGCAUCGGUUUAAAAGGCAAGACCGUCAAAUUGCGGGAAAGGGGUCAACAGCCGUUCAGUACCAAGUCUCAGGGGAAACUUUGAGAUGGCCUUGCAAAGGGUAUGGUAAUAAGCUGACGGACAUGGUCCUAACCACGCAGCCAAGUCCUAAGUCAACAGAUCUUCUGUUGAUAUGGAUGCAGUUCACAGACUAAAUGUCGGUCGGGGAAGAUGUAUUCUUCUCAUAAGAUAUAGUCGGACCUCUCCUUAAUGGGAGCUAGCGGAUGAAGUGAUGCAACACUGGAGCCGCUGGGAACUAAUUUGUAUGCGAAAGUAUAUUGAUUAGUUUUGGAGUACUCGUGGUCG;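 further: selection with 25 µg/mL kanamycin versus none on LB agar overnight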
# settings: 37 °C
measurement type: self-splicing fitness (ln)
// no unit, no text: just the number

Known self-splicing fitness (ln) results, listed for orientation:
{"chain": "CACCAGCAAUAUUACGCAAC", "measurement type": "self-splicing fitness (ln)", "recorded result": -2.85}
{"chain": "CCUGAGCAAUAUUACGUGUU", "measurement type": "self-splicing fitness (ln)", "recorded result": -2.52}

Query `GAGAAGCAAUAUUACGAGGG` yields self-splicing fitness (ln) of -2.99

Query `GAUUAGCAAUAUUACGAUAC` yields self-splicing fitness (ln) of -0.415

Query `CACCAGCAAUAUUACGUAGU` yields self-splicing fitness (ln) of -1.53

Query `UGAUAGCAAUAUUACGAGCU` yields self-splicing fitness (ln) of -0.828

Query `CCCAAGCAAUAUUACGCCUA` yields self-splicing fitness (ln) of -2.8
